test: Plasma pharmacokinetics, 28-day topical ophthalmic dosing in beagle dogs; settings: male, beagle, dog, in vivo, topical or ocular, 0.81 mg/kg
Property name: Tmax (h)
Write the answer as a number in h, unit excluded.

Query Tmax for CC1(C)Oc2ccc(C#N)cc2[C@@H](N2CCCC2=O)[C@@H]1OP(=O)(O)O
2

---

test: Toxicokinetics after escalating intravenous doses of CKLP1 in beagles; format: in vivo, beagle dog; details: male, beagle, dog, in vivo, iv, 0.5 mg/kg
Property name: AUC(0-inf)

Query AUC(0-inf) for CC1(C)Oc2ccc(C#N)cc2[C@@H](N2CCCC2=O)[C@@H]1OP(=O)(O)O [CKLP1]
14300 ng·h/mL

Entry source: patent US20220387457A1
